Recorded IC50 for compounds tested on PIK3CA (human), drawn from a number of studies.

mol | IC50
CC(=O)Nc1ccc(-c2cccc3cc([C@H](C)NC(=O)c4c(N)nn5cccnc45)n(-c4ccccc4)c(=O)c23)cc1 | 1000 to 10000 nM
CC(=O)Nc1cc(-c2ccc3c(c2)CN(c2ncnc4c2CC(C)(C)CC4)CCO3)cnc1Cl | 1000 to 2000 nM
CN1CCCN(c2cnc3ccc(-c4ccc5oc(N)nc5c4)cc3n2)CC1 | < 1000 nM
C[C@H](Nc1ncnc2scnc12)c1cc2cccc(-c3cncnc3)c2c(=O)n1-c1ccccc1 | 1000 to 10000 nM

Q) Hello, I am looking for reported IC50 with PIK3CA (human) for Cn1c(N2CCOCC2)nc2cc(-c3ccc4oc(N)nc4c3)ccc2c1=O . Could you help?
A) < 1000 nM

====

Recorded IC50 for compounds tested on PIK3CA (human) (UniProt P42336), drawn from a number of studies.

Example entries and their recorded answers appear below.
compound | targetEntity | IC50
Nc1nc2cc(-c3ccc4ncc(-c5ccccn5)nc4c3)ccc2o1 | PIK3CA (human) (UniProt P42336) | < 1000 nM
Cc1nc2ccc(-c3ccc4c(c3)CN(C(=O)N3CC[C@H](CF)C[C@@H]3c3ccc(F)c(F)c3)CCO4)cc2[nH]1 (racemic) | PIK3CA (human) (UniProt P42336) | 1000 to 3000 nM

Q) Need IC50 of C[C@H](NC(=O)c1c(N)nn2cccnc12)c1cc2cccc(-c3cncc(NS(C)(=O)=O)c3)c2c(=O)n1-c1ccccc1 , thanks.
A) 1000 to 10000 nM

Q) Need IC50 of CN1CCN(c2nc3cc(-c4ccc5oc(N)nc5c4)ccc3c(=O)n2C)CC1 , thanks.
A) < 10000 nM

Q) Need IC50 of Nc1ccc2[nH]c(=O)cc(Oc3ccccc3)c2c1 , thanks.
A) 2570 nM

Q) Need IC50 of CC(=O)N1CCC(Cc2nnc3cnc4ccc(-c5cnc(N)c(C(F)(F)F)c5)cc4n23)CC1 , thanks.
A) < 100 nM

Q) Need IC50 of C[C@H]1COCCN1C(=O)c1cnc2ccc(-c3ccc4oc(N)nc4c3)cn12 , thanks.
A) < 100 nM

Q) Need IC50 of C[C@H](Nc1ncnc2scnc12)c1cc2cccc(-c3cnn(C)c3)c2c(=O)n1C , thanks.
A) 1000 to 10000 nM

Q) Need IC50 of C[C@H](NC(=O)c1c(N)nn2cccnc12)c1cc2scc(-c3cnn(C)c3)c2c(=O)n1-c1ccccc1 , thanks.
A) > 10000 nM

Q) Need IC50 of O=C(NCCO)Nc1ccc(-c2cccc(Oc3cc(=O)[nH]c4ccccc34)c2)cc1 , thanks.
A) 8480 nM

Q) Need IC50 of CN(CCO)Cc1ccc(-c2ccnc3ccc(-c4cnc(Cl)c(NS(=O)(=O)c5ccc(F)cc5)c4)cc23)cc1 , thanks.
A) 1 nM

Q) Need IC50 of Cc1cccnc1-n1c(Cn2nc(Cl)c3c(N)ncnc32)nc2scc(C)c2c1=O , thanks.
A) > 10000 nM

Q) Need IC50 of C[C@H](NC(=O)c1nc(-c2cnn(C)c2)cnc1N)c1cc2cccc(Cl)c2c(=O)n1-c1ccccc1 , thanks.
A) 1000 to 10000 nM
